measured target: SARS-CoV-2 spike HexaPro (S) (SARS-CoV-2, Wuhan-Hu-1, UniProt P0DTC2, stabilised)
assay comment: cryo-EM structure
metric name: binding result

// query Recorded binding result of psNb 2-45 (VHH) VHH: QVQLVESGGGLVQAGGSLRLSCTASGYDFSILAIAWYRQAPGKERELVAAISRVGSTDYADSVKGRFTISRDNTKNTVSLQMDSLKPEDTAVYYCNAGIPMTTVLSGLGFWGQGTQVTVSS , please.
// result binds

// query Recorded binding result of psNb 2-57 (VHH) VHH: QVQLVESGGGLVQAGGSLRLSCAVSGRTISTFGMGWFRQAPGKEREFVATITRDEDMLLYADSVKGRFTISRDTAKNMVFLQMNSLKIEDTALYYCAVRRDSSWGYSRQSTEYDYWGQGTQVTVSS , please.
// result binds

// query Recorded binding result of psNb 1-22 (VHH) VHH: HVQLVESGGGLVQPGGSLRLSCAASGRSFNSYLMGWFRQAPGKEREFVAWISGSPHDIIRYRDSVKDRFTISRDNAKNTVYLQMNSLKPVDTAVYYCAVGSLRVGSFSPDYWGQGTQVTVSS , please.
// result binds

Entry source: paper doi:10.1101/2021.12.26.474192
